target: ΔF508-CFTR (Homo sapiens, UniProt P13569, DEL508-508); test: Membrane potential optical assay (FRET/VIPR), identification of correction compounds
Sequence (P13569 with tags, fused parts or gaps DEL508-508): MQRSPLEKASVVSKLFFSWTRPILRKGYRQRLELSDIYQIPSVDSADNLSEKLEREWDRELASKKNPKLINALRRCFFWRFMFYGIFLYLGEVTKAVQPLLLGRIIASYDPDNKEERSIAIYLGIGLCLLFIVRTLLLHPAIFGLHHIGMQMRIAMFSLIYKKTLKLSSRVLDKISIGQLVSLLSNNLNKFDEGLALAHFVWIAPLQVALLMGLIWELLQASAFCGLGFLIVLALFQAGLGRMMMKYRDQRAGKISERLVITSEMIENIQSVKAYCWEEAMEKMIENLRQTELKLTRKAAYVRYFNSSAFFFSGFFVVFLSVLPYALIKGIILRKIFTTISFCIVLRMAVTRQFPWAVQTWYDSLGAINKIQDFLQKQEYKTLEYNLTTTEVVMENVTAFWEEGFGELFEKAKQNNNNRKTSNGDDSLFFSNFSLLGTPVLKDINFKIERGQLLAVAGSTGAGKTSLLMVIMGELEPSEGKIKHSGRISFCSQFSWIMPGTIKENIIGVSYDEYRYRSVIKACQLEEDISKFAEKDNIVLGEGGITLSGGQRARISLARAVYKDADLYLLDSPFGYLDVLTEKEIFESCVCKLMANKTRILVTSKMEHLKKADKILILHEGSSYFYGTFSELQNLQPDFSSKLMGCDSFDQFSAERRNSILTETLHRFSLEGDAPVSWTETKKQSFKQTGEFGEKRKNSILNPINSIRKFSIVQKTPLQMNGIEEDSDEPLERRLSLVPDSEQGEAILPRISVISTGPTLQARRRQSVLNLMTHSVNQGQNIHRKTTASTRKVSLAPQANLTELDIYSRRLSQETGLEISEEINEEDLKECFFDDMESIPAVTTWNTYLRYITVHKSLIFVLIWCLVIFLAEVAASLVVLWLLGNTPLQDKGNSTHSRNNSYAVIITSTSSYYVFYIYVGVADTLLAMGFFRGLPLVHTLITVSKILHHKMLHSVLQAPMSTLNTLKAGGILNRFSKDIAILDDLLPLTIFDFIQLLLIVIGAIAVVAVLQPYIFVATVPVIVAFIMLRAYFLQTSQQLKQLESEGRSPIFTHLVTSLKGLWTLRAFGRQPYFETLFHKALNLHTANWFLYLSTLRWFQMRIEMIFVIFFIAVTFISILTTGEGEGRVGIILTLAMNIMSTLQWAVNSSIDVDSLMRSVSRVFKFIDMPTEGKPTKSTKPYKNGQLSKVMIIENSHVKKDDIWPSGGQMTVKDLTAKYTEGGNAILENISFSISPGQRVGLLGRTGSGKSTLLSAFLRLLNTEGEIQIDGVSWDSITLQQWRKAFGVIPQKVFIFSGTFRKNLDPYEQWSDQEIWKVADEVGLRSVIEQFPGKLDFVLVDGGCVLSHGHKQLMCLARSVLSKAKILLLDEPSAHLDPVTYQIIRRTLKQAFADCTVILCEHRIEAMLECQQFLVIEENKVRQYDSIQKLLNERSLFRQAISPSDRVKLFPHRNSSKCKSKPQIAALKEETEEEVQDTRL
pEC50: −log10 of the molar value.
Consider the following compounds; for each one, report its pEC50.

In the examples that follow, each entry is paired with its recorded pEC50.
compound: CCCn1c(C(C)N2CCN(S(=O)(=O)c3ccccc3)CC2)nc2ccccc2c1=O (centres unmarked)
result: 4.60 to 5.00
//
compound: Cc1ccc(S(=O)(=O)N2CCN(Cc3nc4ccc(Cl)cc4c(=O)n3C)CC2)cc1
result: 4.22 to 4.60
//
compound: CCn1c(C(C)N2CCN(S(=O)(=O)c3ccccc3)CC2)nc2ccc(Cl)cc2c1=O (centres unmarked)
result: 4.60 to 5.00
//
compound: CCn1c(C(C)N2CCN(S(=O)(=O)c3ccc(Cl)c([N+](=O)[O-])c3)CC2)nc2ccc(Cl)cc2c1=O (centres unmarked)
result: 4.22 to 4.60
//
compound: CCCCC(=O)N1CCN(C(C)c2nc3ccc(Cl)cc3c(=O)n2C)CC1 (centres unmarked)
result: 4.22 to 4.60
//
compound: COc1ccc(S(=O)(=O)N2CCN(C(C)c3nc4ccc(NC(C)=O)cc4c(=O)n3C)CC2)cc1 (centres unmarked)
result: > 5.00
//
compound: COc1nc(C(C)N2CCN(S(=O)(=O)c3ccc(Br)cc3)CC2)nc2ccccc12 (centres unmarked)
result: 4.22 to 4.60
//
compound: CC(c1nc2ccccc2c(=O)n1C)N1CCN(S(=O)(=O)c2ccc(F)cc2)CC1 (centres unmarked)
result: 4.22 to 4.60

Field: pEC50. Fill in for each record below.
1. COc1ccc(S(=O)(=O)N2CCN(C(C)c3nc(OC4CCCC4)c4cc(F)ccc4n3)CC2)cc1 (centres unmarked)
2. CCCn1c(C(C)N2CCN(S(=O)(=O)c3ccc(OC)cc3)CC2)nc2ccccc2c1=O (centres unmarked)
3. Cc1nn(C)c(Cl)c1S(=O)(=O)N1CCN(C(C)c2nc3ccccc3c(=O)n2C)CC1 (centres unmarked)
4. COc1ccc(S(=O)(=O)N2CCN(C(C)c3nc(OC4CCC4)c4ccccc4n3)CC2)cc1 (centres unmarked)
5. CCc1ccc(S(=O)(=O)N2CCN(C(C)c3nc4ccccc4c(=O)n3C)CC2)cc1 (centres unmarked)

1: > 5.00; 2: > 5.00; 3: 4.22 to 4.60; 4: > 5.00; 5: > 5.00
